Cited source for all entries: the supplement of paper PMC10567573

B1: TRIM15 (parent)
chain: QSSGKILLCPLCQEEEQAETPMAP

- Variants of: B1
- protocolDetails: protein stability index of a GFP-peptide fusion (GPS, HEK-293T) (PSI 1-6); higher = more stable;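 further: lentivirally expressed fusions sorted by FACS into six bins by GFP to DsRed ratio, PSI derived from sequencing read proportions per bin multiplied by bin number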
- protocolConditions: c terminus: a fixed tail appended
valueType: protein stability index

>>> print(df.to_string())
    variantdesignation  resultnumber
 0                P21T          3.16
 1                 Q1W          3.08
 2                 K5G          3.77
 3                A23G          3.52
 4                 S3E          3.79
 5                E14A          2.43
 6                A23C          3.71
 7                 K5S          3.44
 8                 S3I          3.31
 9                 S2A          3.52
10                E19G          3.09
11                M22I          3.45
12                 L8E          5.11
13                 Q1C          2.72
14                C12D          4.87
15                E15P          2.84
16                P21M          2.45
17                E14I          2.54
18                E15T          2.77
19                A23M          3.69
20                 L8Y          3.28
21                 S3Q          3.63
